Taken from patent US20040242587A1.

Exercise: state measured melting point for each of the molecules provided.

For Cc1cc(N[C@@H]2CN(C(=O)OCc3ccccc3)C[C@@H]2O)c2cc(C)c(-c3ccc(Cl)cc3Cl)n2n1 [Example 1] the molecule record lists melting point as 105 to 110 °C

Cc1cc(N2CC=C(C(N)=O)CC2)c2cc(C)c(-c3ccc(Cl)cc3Cl)n2n1 [Example 11] has a reported melting point of > 212 °C (dec.)

Lookup result for Cc1cc(N2CCC3(CC2)OCCO3)c2cc(C)c(-c3ccc(Cl)cc3Cl)n2n1 [Example 8] ; measured melting point: 193.2 to 196.4 °C

GET /value?item= Cc1cc(N2CCC(=O)CC2)c2cc(C)c(-c3ccc(Cl)cc3Cl)n2n1 [Example 9] &field=melting point returns 169.7 to 171.3 °C
